System: Mouse P388 leukemia
Assay: Cancer cell growth inhibition in culture, Mouse P388 leukemia
Type: cell-based
Settings: read-out: ED50 (the source's name)
MEASURE_NAME: EC50 (µM)
Entry rule: numbers only, all in µM.

Which value of EC50 has been reported for CC(C)=CCCC(C)CC=C(C)[N+](=O)[O-] (racemic) in the records?
26
